tested on: 817829-284-R-J1-PDC complex spheroids, viability; assay: Anticancer human tumor 817829-284-R-J1-PDC patient-derived colon adenocarcinoma cell line growth inhibition [GQUAD]; conditions: second compound 10 µM; first compound 0.000999 µM; hits give low values

{"columns": ["Molecule", "viability, T/C"],
 "data": [
  ["CC[C@@]1(O)C(=O)OCc2c1cc1n(c2=O)Cc2cc3c(CN(C)C)c(O)ccc3nc2-1 + Cc1cnc(CNC(=O)c2c(=O)c3ccc(N4CCCN(C)CC4)nc3n3c2sc2ccccc23)cn1", "0.08%"],
  ["Cn1ncnc1[C@H]1c2n[nH]c(=O)c3cc(F)cc(c23)N[C@@H]1c1ccc(F)cc1 + Cc1cnc(CNC(=O)c2c(=O)c3ccc(N4CCCN(C)CC4)nc3n3c2sc2ccccc23)cn1", "0.16%"],
  ["CCc1c2c(nc3ccc(O)cc13)-c1cc3c(c(=O)n1C2)COC(=O)[C@]3(O)CC + Cc1cnc(CNC(=O)c2c(=O)c3ccc(N4CCCN(C)CC4)nc3n3c2sc2ccccc23)cn1", "0.09%"],
  ["CC[C@@]1(O)C(=O)OCc2c1cc1n(c2=O)Cc2cc3c(CN(C)C)c(O)ccc3nc2-1 + Cc1[nH]c2ccc(F)cc2c1-c1nc2c3cccnc3c3ncccc3c2[nH]1", "11%"],
  ["CC[C@@]1(O)C(=O)OCc2c1cc1n(c2=O)Cc2cc3c(CN(C)C)c(O)ccc3nc2-1 + CN(C)c1ccc(Nc2c3ccc(NC(=O)CCN4CCCC4)cc3nc3cc(NC(=O)CCN4CCCC4)ccc23)cc1", "102%"],
  ["CCc1c2c(nc3ccc(O)cc13)-c1cc3c(c(=O)n1C2)COC(=O)[C@]3(O)CC + Cc1[nH]c2ccc(F)cc2c1-c1nc2c3cccnc3c3ncccc3c2[nH]1", "6.96%"]
]}

====

system: 817829-284-R-J1-PDC complex spheroids, viability; experiment: Anticancer human tumor 817829-284-R-J1-PDC cell line growth inhibition [GQUAD]; conditions: second compound 0.0316 µM; first compound 10 µM; active means viability on the fitted dose curve at most 10% of control; inactive means the rest;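 further: spheroids exposed to agents for 7 days before readout; percent viability relative to DMSO vehicle control taken as 100%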
Outcomes: active, inactive

{"columns": ["Molecule", "Label value"],
 "data": [
  ["O=C(c1cc(Cc2n[nH]c(=O)c3ccccc23)ccc1F)N1CCN(C(=O)C2CC2)CC1 + CN(C)c1ccc(Nc2c3ccc(NC(=O)CCN4CCCC4)cc3nc3cc(NC(=O)CCN4CCCC4)ccc23)cc1", "inactive"],
  ["C#Cc1c(F)ccc2cc(O)cc(-c3ncc4c(N5CC6CCC(C5)N6)nc(OCC56CCCN5CC(F)C6)nc4c3F)c12 (stereo unspecified) + Cc1[nH]c2ccc(F)cc2c1-c1nc2c3cccnc3c3ncccc3c2[nH]1", "inactive"],
  ["Nc1ccn(C2OC(CO)C(O)C2(F)F)c(=O)n1 (stereo unspecified) + CN(C)c1ccc(Nc2c3ccc(NC(=O)CCN4CCCC4)cc3nc3cc(NC(=O)CCN4CCCC4)ccc23)cc1", "active"],
  ["COc1cc(C2c3cc4c(cc3C(OC3OC5COC(C)OC5C(O)C3O)C3COC(=O)C23)OCO4)cc(OC)c1O (stereo unspecified) + Cc1cnc(CNC(=O)c2c(=O)c3ccc(N4CCCN(C)CC4)nc3n3c2sc2ccccc23)cn1", "active"],
  ["CC1COCCN1c1cc(C2(S(C)(=N)=O)CC2)nc(-c2ccnc3[nH]ccc23)n1 (stereo unspecified) + Cc1cnc(CNC(=O)c2c(=O)c3ccc(N4CCCN(C)CC4)nc3n3c2sc2ccccc23)cn1", "inactive"],
  ["C=CCn1c(=O)c2cnc(Nc3ccc(N4CCN(C)CC4)cc3)nc2n1-c1cccc(C(C)(C)O)n1 + Cc1cnc(CNC(=O)c2c(=O)c3ccc(N4CCCN(C)CC4)nc3n3c2sc2ccccc23)cn1", "active"],
  ["COc1ccc([C@@H](O)c2cc(-c3ncnc4cc(N5CCOCC5)ccc34)c(F)cc2Cl)nn1 + CN(C)c1ccc(Nc2c3ccc(NC(=O)CCN4CCCC4)cc3nc3cc(NC(=O)CCN4CCCC4)ccc23)cc1", "inactive"],
  ["CC1COCCN1c1cc(C2(O)CC3CCC(C2)O3)c2cnn(-c3ccn[nH]3)c2n1 (stereo unspecified) + Cc1[nH]c2ccc(F)cc2c1-c1nc2c3cccnc3c3ncccc3c2[nH]1", "active"],
  ["O=c1[nH]cc(F)c(=O)[nH]1 + CN(C)c1ccc(Nc2c3ccc(NC(=O)CCN4CCCC4)cc3nc3cc(NC(=O)CCN4CCCC4)ccc23)cc1", "inactive"],
  ["CC1COCCN1c1cc(-c2ccnn2C)c2ccnc(-c3ccn[nH]3)c2n1 (stereo unspecified) + Cc1[nH]c2ccc(F)cc2c1-c1nc2c3cccnc3c3ncccc3c2[nH]1", "active"],
  ["C#Cc1c(F)ccc2cc(O)cc(-c3ncc4c(N5CC6CCC(C5)N6)nc(OCC56CCCN5CC(F)C6)nc4c3F)c12 (stereo unspecified) + Cc1cnc(CNC(=O)c2c(=O)c3ccc(N4CCCN(C)CC4)nc3n3c2sc2ccccc23)cn1", "inactive"]
]}

====

test system: 817829-284-R-J1-PDC complex spheroids, viability; experiment: Anticancer human tumor 817829-284-R-J1-PDC cell line growth inhibition [GQUAD]; conditions: second compound 3.16 µM; first compound 0.0999 µM; hits give low values;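 further: spheroids exposed to agents for 7 days before readout; percent viability relative to DMSO vehicle control taken as 100%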

{"columns": ["Molecule", "Study system", "viability, T/C [%]"],
 "data": [
  ["CCc1c2c(nc3ccc(O)cc13)-c1cc3c(c(=O)n1C2)COC(=O)[C@]3(O)CC + CN(C)c1ccc(Nc2c3ccc(NC(=O)CCN4CCCC4)cc3nc3cc(NC(=O)CCN4CCCC4)ccc23)cc1", "817829-284-R-J1-PDC complex spheroids, viability", 12.2],
  ["Cc1[nH]c2ccccc2c1CCNCc1ccc(/C=C/C(=O)NO)cc1 + Cc1[nH]c2ccc(F)cc2c1-c1nc2c3cccnc3c3ncccc3c2[nH]1", "817829-284-R-J1-PDC complex spheroids, viability", 3.35],
  ["CC[C@@]1(O)C(=O)OCc2c1cc1n(c2=O)Cc2cc3c(CN(C)C)c(O)ccc3nc2-1 + Cc1[nH]c2ccc(F)cc2c1-c1nc2c3cccnc3c3ncccc3c2[nH]1", "817829-284-R-J1-PDC complex spheroids, viability", 18.2],
  ["Cc1[nH]c2ccccc2c1CCNCc1ccc(/C=C/C(=O)NO)cc1 + CN(C)c1ccc(Nc2c3ccc(NC(=O)CCN4CCCC4)cc3nc3cc(NC(=O)CCN4CCCC4)ccc23)cc1", "817829-284-R-J1-PDC complex spheroids, viability", 5.12],
  ["Cn1ncnc1[C@H]1c2n[nH]c(=O)c3cc(F)cc(c23)N[C@@H]1c1ccc(F)cc1 + Cc1[nH]c2ccc(F)cc2c1-c1nc2c3cccnc3c3ncccc3c2[nH]1", "817829-284-R-J1-PDC complex spheroids, viability", 54.6],
  ["Cn1ncnc1[C@H]1c2n[nH]c(=O)c3cc(F)cc(c23)N[C@@H]1c1ccc(F)cc1 + CN(C)c1ccc(Nc2c3ccc(NC(=O)CCN4CCCC4)cc3nc3cc(NC(=O)CCN4CCCC4)ccc23)cc1", "817829-284-R-J1-PDC complex spheroids, viability", 104]
]}

====

tested on: 817829-284-R-J1-PDC complex spheroids, viability; assay: Anticancer human tumor 817829-284-R-J1-PDC cell line growth inhibition [GQUAD]; conditions: second compound 0.0316 µM; first compound 10 µM; hits give low values;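 further: spheroids exposed to agents for 7 days before readout; percent viability relative to DMSO vehicle control taken as 100%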
Rule: measured viability, T/C below 10% gets 1 (yes); anything equal to or greater than 10% gets 0 (no).

{"columns": ["Compound", "Study system", "Label value"],
 "data": [
  ["C=CC(=O)N1CCN(c2nc(=O)n(-c3c(C)ccnc3C(C)C)c3nc(-c4c(O)cccc4F)c(F)cc23)C(C)C1 (stereo unspecified) + Cc1[nH]c2ccc(F)cc2c1-c1nc2c3cccnc3c3ncccc3c2[nH]1", "817829-284-R-J1-PDC complex spheroids, viability", "0 (no)"],
  ["CC(C)n1c(=O)n(C)c2cnc3cc(F)c(-c4ccc(OCCCN5CCCCC5)nc4)cc3c21 + Cc1cnc(CNC(=O)c2c(=O)c3ccc(N4CCCN(C)CC4)nc3n3c2sc2ccccc23)cn1", "817829-284-R-J1-PDC complex spheroids, viability", "0 (no)"],
  ["C=CC(=O)N1CCN(c2nc(=O)n(-c3c(C)ccnc3C(C)C)c3nc(-c4c(O)cccc4F)c(F)cc23)C(C)C1 (stereo unspecified) + Cc1cnc(CNC(=O)c2c(=O)c3ccc(N4CCCN(C)CC4)nc3n3c2sc2ccccc23)cn1", "817829-284-R-J1-PDC complex spheroids, viability", "0 (no)"],
  ["CC1COCCN1c1cc(-c2ccnn2C)c2ccnc(-c3ccn[nH]3)c2n1 (stereo unspecified) + Cc1cnc(CNC(=O)c2c(=O)c3ccc(N4CCCN(C)CC4)nc3n3c2sc2ccccc23)cn1", "817829-284-R-J1-PDC complex spheroids, viability", "1 (yes)"],
  ["CC1COCCN1c1cc(C2(O)CC3CCC(C2)O3)c2cnn(-c3ccn[nH]3)c2n1 (stereo unspecified) + Cc1cnc(CNC(=O)c2c(=O)c3ccc(N4CCCN(C)CC4)nc3n3c2sc2ccccc23)cn1", "817829-284-R-J1-PDC complex spheroids, viability", "1 (yes)"],
  ["COc1ncnc(C2CC2)c1-c1ncc2cnn(Cc3ccc(-c4nc(C(F)(F)F)cn4C(C)C)cc3)c2n1 + Cc1[nH]c2ccc(F)cc2c1-c1nc2c3cccnc3c3ncccc3c2[nH]1", "817829-284-R-J1-PDC complex spheroids, viability", "0 (no)"],
  ["Cc1cccc(N(C)C(=O)C2C(O)CCN2c2nc(C)cc(C(F)(F)F)c2C#N)c1 (stereo unspecified) + Cc1cnc(CNC(=O)c2c(=O)c3ccc(N4CCCN(C)CC4)nc3n3c2sc2ccccc23)cn1", "817829-284-R-J1-PDC complex spheroids, viability", "0 (no)"],
  ["CC(C)(O)C1CCC(Nc2ccc3ncc(-c4cccc(C(F)(F)F)c4)n3n2)CC1 (stereo unspecified) + Cc1[nH]c2ccc(F)cc2c1-c1nc2c3cccnc3c3ncccc3c2[nH]1", "817829-284-R-J1-PDC complex spheroids, viability", "0 (no)"],
  ["C=CC(=O)N1CCN(c2nc(=O)n(-c3c(C)ccnc3C(C)C)c3nc(-c4c(O)cccc4F)c(F)cc23)C(C)C1 (stereo unspecified) + CN(C)c1ccc(Nc2c3ccc(NC(=O)CCN4CCCC4)cc3nc3cc(NC(=O)CCN4CCCC4)ccc23)cc1", "817829-284-R-J1-PDC complex spheroids, viability", "0 (no)"],
  ["COc1ccc([C@@H](O)c2cc(-c3ncnc4cc(N5CCOCC5)ccc34)c(F)cc2Cl)nn1 + Cc1cnc(CNC(=O)c2c(=O)c3ccc(N4CCCN(C)CC4)nc3n3c2sc2ccccc23)cn1", "817829-284-R-J1-PDC complex spheroids, viability", "0 (no)"],
  ["CC1COCCN1c1cc(-c2ccnn2C)c2ccnc(-c3ccn[nH]3)c2n1 (stereo unspecified) + CN(C)c1ccc(Nc2c3ccc(NC(=O)CCN4CCCC4)cc3nc3cc(NC(=O)CCN4CCCC4)ccc23)cc1", "817829-284-R-J1-PDC complex spheroids, viability", "1 (yes)"]
]}
